assay: gradient 5% acetonitrile 3 min, to 50% in 2 min, to 85% in 15 min, held 3 min, 100 µL/min; conditions: column: Zorbax Extend-C18 2.1 x 50 mm; eluents: water / acetonitrile, 0.1% formic acid
reported-property: RP-LC retention time (s)

{"molecule": "O=C(CN1C(=O)CCC1=O)Nc1cccc(NC(=O)CN2C(=O)CCC2=O)c1", "measurement-units": "s", "RP-LC retention time": 692}
{"molecule": "CCc1ccc(C(=O)N2CCN(c3nnc4ccccn34)CC2)cc1", "measurement-units": "s", "RP-LC retention time": 681}
{"molecule": "CCN1CCN(C(=O)CC(c2cc(OC)c(OC)c(OC)c2)N2Cc3ccccc3C2=O)CC1 (stereo not drawn)", "measurement-units": "s", "RP-LC retention time": 613}
{"molecule": "CCCN1C(=O)c2c(C(=O)OC)ncn2CC1(C)C(=O)NCc1ccccc1 (stereo not drawn)", "measurement-units": "s", "RP-LC retention time": 640}
{"molecule": "CCCS(=O)(=O)N1CCCN(C2=NS(=O)(=O)C(c3ccc(C)cc3)=C2C)CC1", "measurement-units": "s", "RP-LC retention time": 874}
{"molecule": "CCOc1ccccc1CNC(=O)CN1CCN(Cc2ccccc2F)C1=O", "measurement-units": "s", "RP-LC retention time": 854}
{"molecule": "Cc1nc2ccccc2n1Cc1nnc2sc(-c3cccnc3)nn12", "measurement-units": "s", "RP-LC retention time": 550}
{"molecule": "CCn1cnc2cc(CNC(=O)c3ccsc3)ccc21", "measurement-units": "s", "RP-LC retention time": 572}
{"molecule": "Cc1cccc(OCCc2noc(C3CN(S(=O)(=O)N(C)C)C3)n2)c1", "measurement-units": "s", "RP-LC retention time": 950}
{"molecule": "COc1ccccc1CNC(=O)C1CCN(S(=O)(=O)c2ccc3c(c2)CCCC(=O)N3)CC1", "measurement-units": "s", "RP-LC retention time": 816}
{"molecule": "CCN1C(=O)c2cccnc2Sc2cc(NC(C)=O)ccc21", "measurement-units": "s", "RP-LC retention time": 627}
{"molecule": "COc1ccc(C(=O)N2C[C@@H]3C[C@H]2C[C@@H]3NS(=O)(=O)c2ccccc2)cn1", "measurement-units": "s", "RP-LC retention time": 716}
{"molecule": "O=C(C1CCCN(c2ncnc3c2nc2n3CCCCC2)C1)N1CCCCC1 (stereo not drawn)", "measurement-units": "s", "RP-LC retention time": 713}

###

assay: gradient 5% acetonitrile 3 min, to 50% in 2 min, to 85% in 15 min, held 3 min, 100 µL/min; settings: column: Zorbax Extend-C18 2.1 x 50 mm; eluents: water / acetonitrile, 0.1% formic acid
reported-property: RP-LC retention time (s)

Consider the worked cases shown below.
{"molecule": "COc1ccc(Cl)cc1NS(=O)(=O)c1ccc2c(c1)CCCC(=O)N2", "RP-LC retention time [s]": 765}
{"molecule": "CCOC(=O)c1ccc2c(c1)NCc1cccc(OC)c1O2", "RP-LC retention time [s]": 1030}
{"molecule": "CCn1cc(S(=O)(=O)N2C[C@@H](COC)[C@H](C(=O)NC)C2)cn1", "RP-LC retention time [s]": 603}
{"molecule": "O=C(NCc1ccc(Br)cc1)C1CCN(c2ncnc3c2oc2ccccc23)CC1", "RP-LC retention time [s]": 982}
{"molecule": "O=C(Nc1ccc(Cl)c(C(F)(F)F)c1)C(=O)c1ccc[nH]1", "RP-LC retention time [s]": 1050}

I: Cc1ccc(-c2nc3cccnc3n2C2CCN(S(=O)(=O)c3cccnc3)C2)cc1 (stereo unspecified)
II: Cc1ccc(C)c(NC(=O)C2CCN(S(=O)(=O)c3ccc4c(c3)sc(=O)n4C(C)C)CC2)c1
Req: Would you kindly point out which of I and II has the smaller RP-LC retention time figure? Returns: label corresponding to the selected item.
Resp: I
(I: 728 s, II: 1070 s)

###

experiment: gradient 5% acetonitrile 3 min, to 50% in 2 min, to 85% in 15 min, held 3 min, 100 µL/min; details: column: Zorbax Extend-C18 2.1 x 50 mm; eluents: water / acetonitrile, 0.1% formic acid
reported-property: RP-LC retention time (s)

{"compound": "CNC(=O)N1CCCC(c2cccc(C(=O)NC(C)c3ccc(C)cc3C)c2)C1 (stereo not given)", "assay-value": 880}
{"compound": "CCOC(=O)c1cn(CC(=O)NCCC(C)C)c2nc(C)ccc2c1=O", "assay-value": 723}
{"compound": "COc1ccc(CNC(=O)c2cnc3c(c2)c(=O)n(C)c(=O)n3-c2ccc(OC)cc2)cc1", "assay-value": 841}
{"compound": "O=C(Nc1ccccc1)C1CCCN(S(=O)(=O)c2c[nH]c(C(=O)N3CCCCCC3)c2)C1 (stereo not given)", "assay-value": 876}
{"compound": "CCOC(=O)c1c(C)[nH]c(C(=O)N2CCCC(C(=O)NCCc3ccc(OCC)cc3)C2)c1C (stereo not given)", "assay-value": 866}

1: CCc1csc(-c2ccc(S(=O)(=O)NC(CC)c3cccs3)s2)n1 (stereo not given)
2: CCOC(=O)c1ccc(NC(=O)NCC2CCN(Cc3ccc(C)cc3)C2)cc1 (stereo not given)
Req: Consider entries 1 and 2 . Which has the numerically lower RP-LC retention time? In your reply, give the label of the chosen option.
Resp: 2
(2: 688 s, 1: 1150 s)

###

assay: gradient 5% acetonitrile 3 min, to 50% in 2 min, to 85% in 15 min, held 3 min, 100 µL/min; conditions: column: Zorbax Extend-C18 2.1 x 50 mm; eluents: water / acetonitrile, 0.1% formic acid
reported-property: RP-LC retention time (s)

{"smiles-text": "CCCNC(=O)c1cn2ccnc(-c3ccc(C)cc3)c2n1", "RP-LC retention time [s]": 878}
{"smiles-text": "CCc1noc(NC(C)=O)c1-c1ccc(OC)c(S(=O)(=O)NC2CC2)c1", "RP-LC retention time [s]": 679}
{"smiles-text": "COc1ccccc1-c1nocc1CCC(=O)O", "RP-LC retention time [s]": 686}

###

test: gradient 5% acetonitrile 3 min, to 50% in 2 min, to 85% in 15 min, held 3 min, 100 µL/min; settings: column: Zorbax Extend-C18 2.1 x 50 mm; eluents: water / acetonitrile, 0.1% formic acid
reported-property: RP-LC retention time (s)

Illustrative cases are given below, each with its answer.
{"compound": "Cc1sc(NC(=O)c2ccco2)nc1-c1ccc2c(c1)NC(=O)C(C)O2 (stereo not given)", "assay-value": 814}
{"compound": "O=C(NCc1ccc(C(F)(F)F)cc1)C1CCCN(c2nccnc2Oc2ccccc2)C1 (stereo not given)", "assay-value": 1040}
{"compound": "CCn1ccc2sc(C)c(C(=O)N3CCN(CC(C)C)CC3)c2c1=O", "assay-value": 574}

P: COc1cc(OC)cc(-n2nnc(-c3nsc(Nc4ccccc4OC)n3)c2C)c1
Q: O=C(Cc1ccsc1)NCc1cccnc1Oc1ccccc1
Req: Looking only at measured RP-LC retention time, which entry is lower, P or Q ? Mark your selection by writing its label.
Resp: Q

###

test: gradient 5% acetonitrile 3 min, to 50% in 2 min, to 85% in 15 min, held 3 min, 100 µL/min; conditions: column: Zorbax Extend-C18 2.1 x 50 mm; eluents: water / acetonitrile, 0.1% formic acid
reported-property: RP-LC retention time (s)

Use the examples below as a reference point.
{"compound": "CCCS(=O)(=O)c1nc2ccc(NS(=O)(=O)c3ccccc3Cl)cc2s1", "RP-LC retention time [s]": 906}
{"compound": "CN(C)c1nc2cc(C(=O)NCC3CC3)sc2n1-c1ccccc1", "RP-LC retention time [s]": 702}
{"compound": "CCOC(=O)c1[nH]c(C)c(CCC(=O)Nc2ccc3c(c2)OCO3)c1C", "RP-LC retention time [s]": 819}
{"compound": "COc1ccc(CCC(=O)N2CCCC(C)(C(=O)NCc3ccc(C)cc3)C2)cc1 (stereo not given)", "RP-LC retention time [s]": 932}
{"compound": "Cc1ccc(S(=O)(=O)N2CCCC(Cn3c(C4CC4)nc4cccnc43)C2)cc1F (stereo not given)", "RP-LC retention time [s]": 819}

1: Cc1cc(OCC(=O)Nc2cccc(F)c2)nc(N2CCN(c3ccccc3)CC2)n1
2: COCCn1c(CC2CCN(C(=O)c3ccc(C)s3)C2)nc2cccnc21 (stereo not given)
Req: Which value of RP-LC retention time is smaller, the one for 1 or the one for 2 ? Please respond with the label that marks your chosen entry.
Resp: 2

###

assay: gradient 5% acetonitrile 3 min, to 50% in 2 min, to 85% in 15 min, held 3 min, 100 µL/min; settings: column: Zorbax Extend-C18 2.1 x 50 mm; eluents: water / acetonitrile, 0.1% formic acid
reported-property: RP-LC retention time (s)

{"compound": "CCC(=O)N1CCC2(CC1)CC1C(=O)N(CC)C(=O)N1C2 (configuration not stated)", "RP-LC retention time / s": 626}
{"compound": "CCc1ccccc1N1C(=O)c2c(C(=O)OC)ncn2CC1(C)C(=O)NC1CCCC1 (configuration not stated)", "RP-LC retention time / s": 733}
{"compound": "O=C(CN1CCN(Cc2ccccc2F)C1=O)NC1CCN(Cc2ccccc2)CC1", "RP-LC retention time / s": 610}
{"compound": "Cc1ccc(NC(=O)Cn2cc(-c3ccccc3)c(N(C)C)n2)c(F)c1", "RP-LC retention time / s": 997}
{"compound": "Cc1ccc(C)c(C(=O)Nc2cc(-c3cccnc3)no2)c1", "RP-LC retention time / s": 585}
{"compound": "COc1cccc(-c2noc(Cn3ccn4nc(-c5ccc(F)cc5)cc4c3=O)n2)c1OC", "RP-LC retention time / s": 1010}
{"compound": "O=C(N1c2ccccc2CC1c1nnc(C2CCOCC2)o1)C1(c2ccccc2)CC1 (configuration not stated)", "RP-LC retention time / s": 841}
{"compound": "O=C(Cc1ccccc1Cl)NC1CCN(c2ccc(=O)n(CC3CC3)n2)C1 (configuration not stated)", "RP-LC retention time / s": 760}
{"compound": "Cc1cc(NC(=O)c2ccc3c(c2)nnn3Cc2ccccc2)no1", "RP-LC retention time / s": 819}
{"compound": "COc1cc(-n2c(=O)c3ccccc3n(Cc3ccccc3C#N)c2=O)cc(OC)c1OC", "RP-LC retention time / s": 805}
{"compound": "CC(C)CC(=O)NCC1Cn2cccc2C(=O)N1C (configuration not stated)", "RP-LC retention time / s": 620}
{"compound": "CCOc1ccccc1N1CCN(C(=O)C2CCN(c3nccc4c(C)nn(CC)c34)CC2)CC1", "RP-LC retention time / s": 719}
